The origin of these recorded values is patent US20260125454A1.

Target: T1, Biotin-huCGRPaSA (human, not fully specified; biotin (position not given))
T1 construct: exact construct ('aSA') not explained; also called Biotin CGRPaSA; full-length (1-37) CGRP
T1 peptide: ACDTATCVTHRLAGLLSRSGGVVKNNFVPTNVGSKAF
Assay: ELISA, supernatant; relative to chimeric C245
Measured property: Relative binding activity, % (%)
// note: answer is a bare numeric in %

Report Relative binding activity, %, nothing else, for this binder: hu195 (antibody, V domains shown, 3E5 HC-4/3H10 LC2-2) VH: QVQLVQSGAEVKKPGASVKVSCKTSGYTFTDYNMHWVRQAPGQRLEWMGYISPYNAGTAYNQKFKFRVTLTVDTSSSTAYMELSSLRSEDTAVYYCAREGLGGYWGQGTLVTVSS VL: DIQLTQSPSSLSASVGDRVTITCKASQNIDYGGYSYMNWYQQKPGKAPKVLIYSVFNLESGVPSRFSGSGSGTDFTLTISSLQPEDFATYYCQQSNEAPYTFGQGTKLEIK
23

Fill in Relative binding activity, % for record hu50 (antibody, V domains shown, 1F5 HC-2/3E5 LC-1) VH: QVQLVQSGAEVKKPGASVKVSCKASGYTFTDFNMHWVRQAPGQRLEWMGYIYPYNGDVVYNQNFTNRVTLTVDTSSSTAYMELSSLRSEDTAVYYCAREGLGGYWGQGTLVTVSS VL: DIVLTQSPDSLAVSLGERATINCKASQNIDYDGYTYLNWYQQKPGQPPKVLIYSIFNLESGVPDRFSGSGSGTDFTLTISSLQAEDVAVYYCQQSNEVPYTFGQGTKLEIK
132
